conditions: human, plasma
Residues, ends and D or L forms follow the SMILES beside them.
Please provide measured half-life for the entries that follow.

Qu. For CC[C@H](C)[C@H](NC(=O)[C@H](Cc1c[nH]c2ccccc12)NC(=O)[C@H](CC(=O)O)NC(=O)[C@H](CC(=O)O)NC(=O)[C@H](CC(=O)O)NC(=O)[C@H](CCC(=O)O)NC(C)=O)C(=O)N[C@@H](CC(=O)O)C(=O)N[C@@H](Cc1c[nH]c2ccccc12)C(=O)N[C@@H](Cc1ccc(O)cc1)C(=O)N[C@@H](CC(=O)O)C(=O)N[C@@H](CO)C(=O)N[C@@H](CC(=O)O)C(=O)N[C@@H](CC(=O)O)C(=O)N[C@@H](CC(=O)O)C(N)=O [Peptide 16] (Ac-EDDDWIDWYDSDDD-NH2) , what is its reported half-life?
Ans. > 48 h

Qu. Report half-life for CC[C@H](C)[C@H](NC(=O)[C@H](Cc1ccccc1)NC(=O)[C@H](CCC(=O)O)NC(=O)[C@@H](NC(=O)[C@H](CCC(=O)O)NC(C)=O)[C@@H](C)O)C(=O)N[C@@H](C)C(=O)N[C@@H](Cc1c[nH]c2ccccc12)C(=O)NCC(=O)N1CCC[C@H]1C(=O)N[C@H](C(=O)NCC(=O)N[C@@H](CC(=O)O)C(=O)N[C@@H](CCC(=O)O)C(=O)N[C@@H](CC(=O)O)C(N)=O)[C@@H](C)O [AJAP-1WT, Ac-ETEFIAWGPTGDED-NH2] (Ac-ETEFIAWGPTGDED-NH2) please.
Ans. > 48 h

FYI, the data here is from patent US20260193293A1.
